Recorded values, source paper PMC7041903.

Provide the reported log10 of Km of each item.
Target under test: human soluble epoxide hydrolase (hsEH) (Homo sapiens)
Construct: gene EPHX2; C-terminal domain (CTD)
Sequence (P34913 230-555 limits assumed): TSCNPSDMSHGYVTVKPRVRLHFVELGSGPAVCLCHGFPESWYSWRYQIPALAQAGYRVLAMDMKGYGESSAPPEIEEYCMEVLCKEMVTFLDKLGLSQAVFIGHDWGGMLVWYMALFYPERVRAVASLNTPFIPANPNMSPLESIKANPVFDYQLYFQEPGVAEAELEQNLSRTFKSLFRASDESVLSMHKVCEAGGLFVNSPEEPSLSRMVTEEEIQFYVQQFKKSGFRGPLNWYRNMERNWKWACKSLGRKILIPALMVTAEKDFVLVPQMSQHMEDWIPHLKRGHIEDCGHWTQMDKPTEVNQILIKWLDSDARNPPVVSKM
Procedure text: single-injection ITC enzyme kinetics (KM)
Format: biochemical
Recorded Km (log10, µM)

Below are worked cases with known answers.
{"Compound": "CCCCC/C=C\\C/C=C\\CC1OC1C/C=C\\CCCC(=O)O (stereo not drawn)", "Target under test": "human soluble epoxide hydrolase (hsEH) (Homo sapiens)", "Result": 1.36}
{"Compound": "CCC1OC1C/C=C\\C/C=C\\C/C=C\\C/C=C\\CCCC(=O)O (stereo not drawn)", "Target under test": "human soluble epoxide hydrolase (hsEH) (Homo sapiens)", "Result": 1.42}
{"Compound": "CCCCCC1OC1C/C=C\\C/C=C\\C/C=C\\CCCC(=O)O (stereo not drawn)", "Target under test": "human soluble epoxide hydrolase (hsEH) (Homo sapiens)", "Result": 1.11}
{"Compound": "CC/C=C\\C/C=C\\C/C=C\\CC1OC1C/C=C\\CCCC(=O)O (stereo not drawn)", "Target under test": "human soluble epoxide hydrolase (hsEH) (Homo sapiens)", "Result": 0.99}
{"Compound": "CCCCC/C=C\\CC1OC1C/C=C\\C/C=C\\CCCC(=O)O (stereo not drawn)", "Target under test": "human soluble epoxide hydrolase (hsEH) (Homo sapiens)", "Result": 0.24}

Would you kindly look at the next entry?
Give its log10 of Km value. Item: CCC1OC1C/C=C\C/C=C\C/C=C\C/C=C\C/C=C\CCC(=O)O (stereo not drawn)
1.42
